# method: Ex vivo biodistribution in normal mice
# Design: species or system ddY mice
# condition parameters: i.v., 30 min after injection, mean (SD), 5 animals
measured metric: Biodistribution of radioactivity, Intestine

compound	reported value
CN(C)c1ccc(C2=N[O][99Tc-]3(=[O])([NH]2)[NH2+]C(c2ccc4nc(-c5ccc(N(C)C)cc5)sc4c2)=N[O]3)cc1 [[^99mTc]BT1B]	6.81 (2.03) % injected dose per gram
CN(C)c1ccc(-c2nc3ccc(C4=N[O][99Tc-]5(=[O])([NH]4)[NH2+]C(c4ccc6nc(-c7ccc(N(C)C)cc7)sc6c4)=N[O]5)cc3s2)cc1 [[^99mTc]BT2B]	6.44 (1.04) % injected dose per gram
CN(C)c1ccc(/C=C/c2ccc(C3=N[O][99Tc-]4(=[O])([NH]C(c5ccc(N(C)C)cc5)=N[O]4)[NH2+]3)cc2)cc1 (single isomer, unassigned) [[^99mTc]SB1A]	7.06 (1.67) % injected dose per gram
CN(C)c1ccc(/C=C/c2ccc(C3=N[O][99Tc-]4(=[O])([NH]3)[NH2+]C(c3ccc(/C=C/c5ccc(N(C)C)cc5)cc3)=N[O]4)cc2)cc1 (single isomer, unassigned) [[^99mTc]SB2A]	2.64 (0.36) % injected dose per gram
